test system: MDA-MB-231; test: relative cell viability, compound + RSL3, vs DMSO (fraction of DMSO control); higher = less growth inhibition; conditions: 72 h;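 note: breast cancer cell viability read out with the CCK-8 kit after co-treatment of each compound with the ferroptosis inducer RSL3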
Can you tell me relative cell viability for the items I'm about to list?
Answers are plain numbers.

compound: CCN(CC)Cc1ccc(C(=O)N(CCc2ccccc2OC)[C@@H]2CCNC2)cc1 + COC(=O)c1ccc([C@H]2c3[nH]c4ccccc4c3C[C@H](C(=O)OC)N2C(=O)CCl)cc1
value.observed: 0.784

Would you be so kind as to report relative cell viability for each listed record?
1. CNC(=O)c1cccc(NC(=O)N2CCC(Oc3ccccc3Cl)CC2)c1 + COC(=O)c1ccc([C@H]2c3[nH]c4ccccc4c3C[C@H](C(=O)OC)N2C(=O)CCl)cc1
2. Cc1nc2ccc(NCc3cccc(C(F)(F)F)c3)cc2n(CCNC(=O)CO)c1=O + COC(=O)c1ccc([C@H]2c3[nH]c4ccccc4c3C[C@H](C(=O)OC)N2C(=O)CCl)cc1
3. COc1cc(N2CCN(C)CC2)ccc1Nc1ncc2c(n1)N(C)c1ccccc1C(=O)N2 + COC(=O)c1ccc([C@H]2c3[nH]c4ccccc4c3C[C@H](C(=O)OC)N2C(=O)CCl)cc1
4. COc1cc(O)c2c(c1)O[C@H](c1ccc(O)cc1)CC2=O [Sakuranetin] + COC(=O)c1ccc([C@H]2c3[nH]c4ccccc4c3C[C@H](C(=O)OC)N2C(=O)CCl)cc1

(A)
0.683
0.567
0.375
0.645
